IC50 at 3 days values for the compounds below.
assay procedure: MTT cytotoxicity assay, normal skin fibroblast strain AG01523
Format: cell-based
condition details: AG01523 normal skin fibroblasts, normal human skin fibroblasts, 3 days incubation, mean of three independent experiments (± standard deviation)
readout name: IC50 at 3 days

- compound: "COc1cccc2c1C(=O)c1c(O)c3c(c(O)c1C2=O)C[C@@](O)(C(=O)CO)C[C@@H]3O[C@H]1C[C@H](N)[C@H](O)[C@H](C)O1 [Doxorubicin, reference compound]"
  reading: "0.875 µM"
- compound: "COc1cc(C=C2SC(=S)NC2=O)ccc1OCc1nc2ccccc2c(=O)n1-c1ccc(Br)cc1"
  reading: "> 100 µM"
- compound: "COc1cc(C=C2SC(=S)NC2=O)ccc1OCc1nc2ccccc2c(=O)n1-c1ccc(Cl)cc1"
  reading: "> 100 µM"

---

System: HT-1080 cells
assay procedure: MTT cytotoxicity assay, HT-1080 fibrosarcoma cells
Format: cell-based, human
condition details: Homo sapiens, HT-1080, 72 h, 3 days incubation, mean of three independent experiments (± standard deviation)
# IC50 values compiled below

- molecule: "COc1cc(C=C2SC(=S)NC2=O)ccc1OCc1nc2ccccc2c(=O)n1-c1ccc(C)cc1"
  IC50 / µM: 31.5
- molecule: "O=C1NC(=S)SC1=Cc1ccc(OCc2nc3ccccc3c(=O)n2-c2cccc(Cl)c2)cc1"
  IC50 / µM: 57.1
- molecule: "COc1ccc(-n2c(COc3ccc(C=C4SC(=S)NC4=O)cc3OC)nc3ccccc3c2=O)cc1"
  IC50 / µM: 34.7
- molecule: "COc1cc(C=C2SC(=S)NC2=O)ccc1OCc1nc2ccccc2c(=O)n1-c1cccc(C)c1"
  IC50 / µM: 30.7
- molecule: "O=C1NC(=S)SC1=Cc1ccc(OCc2nc3ccccc3c(=O)n2-c2ccc(F)cc2)cc1"
  IC50 / µM: 47.3
- molecule: "COc1cccc2c1C(=O)c1c(O)c3c(c(O)c1C2=O)C[C@@](O)(C(=O)CO)C[C@@H]3O[C@H]1C[C@H](N)[C@H](O)[C@H](C)O1 [Doxorubicin, reference compound]"
  IC50 / µM: 0.012
- molecule: "COc1cc(C=C2SC(=S)NC2=O)ccc1OCc1nc2ccccc2c(=O)n1-c1cccc(Br)c1"
  IC50 / µM: 23.7
- molecule: "O=C1NC(=S)SC1=Cc1ccc(OCc2nc3ccccc3c(=O)n2-c2ccc(Br)cc2)cc1"
  IC50 / µM: 28.8
- molecule: "COc1ccc(-n2c(COc3ccc(C=C4SC(=S)NC4=O)cc3)nc3ccccc3c2=O)cc1"
  IC50 / µM: 36.4
- molecule: "COc1cc(C=C2SC(=S)NC2=O)ccc1OCc1nc2ccccc2c(=O)n1-c1ccccc1"
  IC50 / µM: 36.1
- molecule: "COc1cc(C=C2SC(=S)NC2=O)ccc1OCc1nc2ccccc2c(=O)n1-c1ccc(Cl)cc1"
  IC50 / µM: 10.2

---

As shown below, each of these compounds has a reported melting point value.
readout name: melting point

- compound: "COc1ccc(-n2c(COc3ccc(C=C4SC(=S)NC4=O)cc3OC)nc3ccccc3c2=O)cc1 (hydrate or solvate) [Compound 50]"
  readout name: "melting point"
  reading: "148 to 150 °C"
- compound: "COc1cc(C=C2SC(=S)NC2=O)ccc1OCc1nc2ccccc2c(=O)n1-c1cccc(C)c1 (hydrate or solvate) [Compound 49]"
  readout name: "melting point"
  reading: "154 to 156 °C"
- compound: "O=C1NC(=S)SC1=Cc1ccc(OCc2nc3ccccc3c(=O)n2-c2ccccc2)cc1 [Compound 31]"
  readout name: "melting point"
  reading: "230 to 232 °C"
- compound: "O=C1NC(=S)SC1=Cc1ccc(OCc2nc3ccccc3c(=O)n2-c2cccc(Br)c2)cc1 (hydrate or solvate) [Compound 36]"
  readout name: "melting point"
  reading: "252 to 254 °C"
- compound: "O=C1NC(=S)SC1=Cc1ccc(OCc2nc3ccccc3c(=O)n2-c2cccc(Cl)c2)cc1 (hydrate or solvate) [Compound 34]"
  readout name: "melting point"
  reading: "237 to 239 °C"
- compound: "COc1cc(C=C2SC(=S)NC2=O)ccc1OCc1nc2ccccc2c(=O)n1-c1ccc(F)cc1 [Compound 42]"
  readout name: "melting point"
  reading: "163 to 166 °C"
- compound: "Cc1cccc(-n2c(COc3ccc(C=C4SC(=S)NC4=O)cc3)nc3ccccc3c2=O)c1 [Compound 39]"
  readout name: "melting point"
  reading: "165 to 168 °C"
- compound: "COc1cc(C=C2SC(=S)NC2=O)ccc1OCc1nc2ccccc2c(=O)n1-c1ccc(Cl)cc1 (hydrate or solvate) [Compound 43]"
  readout name: "melting point"
  reading: "239 to 241 °C"
- compound: "COc1cc(C=C2SC(=S)NC2=O)ccc1OCc1nc2ccccc2c(=O)n1-c1ccc(C)cc1 (hydrate or solvate) [Compound 48]"
  readout name: "melting point"
  reading: "172 to 175 °C"
- compound: "O=C1NC(=S)SC1=Cc1ccc(OCc2nc3ccccc3c(=O)n2-c2ccc(Cl)cc2)cc1 (hydrate or solvate) [Compound 33]"
  readout name: "melting point"
  reading: "121 to 123 °C"
- compound: "Cc1ccc(-n2c(COc3ccc(C=C4SC(=S)NC4=O)cc3)nc3ccccc3c2=O)cc1 (hydrate or solvate) [Compound 38]"
  readout name: "melting point"
  reading: "148 to 150 °C"
- compound: "COc1ccc(-n2c(COc3ccc(C=C4SC(=S)NC4=O)cc3)nc3ccccc3c2=O)cc1 [Compound 40]"
  readout name: "melting point"
  reading: "190 to 192 °C (dec.)"
- compound: "O=C1NC(=S)SC1=Cc1ccc(OCc2nc3ccccc3c(=O)n2-c2ccc(F)cc2)cc1 (hydrate or solvate) [Compound 32]"
  readout name: "melting point"
  reading: "231 to 233 °C (dec.)"
- compound: "O=C1NC(=S)SC1=Cc1ccc(OCc2nc3ccccc3c(=O)n2-c2ccc(Br)cc2)cc1 (hydrate or solvate) [Compound 35]"
  readout name: "melting point"
  reading: "171 to 174 °C"

Entry source: paper PMC5640562
